Test system: human breast cancer cell line T-47D
PROTOCOL DESCRIPTION: Caspase cascade activation (EC50), T-47D
Assay type: cell-based
SETUP CONDITIONS: Homo sapiens; T47D cells; caspase cascade activation; read-out: caspase potency (EC50) T47D
pEC50: −log10 of the molar value.
PARAMETER MEASURED: pEC50

(I) COc1ccc(-c2nnc3n2N=C(c2ccc4c(c2)OCO4)CS3)cc1
(II) COc1ccc(C2=Nn3c(nnc3-c3cc(OC)c(OC)c(OC)c3)SC2)cc1OC
(III) COc1ccccc1-c1nnc2n1N=C(c1cc(Br)c(N)c(Br)c1)CS2
// query Sort low-to-high on pEC50, please. Thanks in advance for listing the labels in the requested order.
// result I, II, III
(I: 5.48, II: 6.30, III: 6.59)

(a) COc1cc(-c2nnc3n2N=C(c2ccc(O)c(O)c2)CS3)cc(OC)c1OC
(b) CNc1ccccc1-c1nnc2n1N=C(c1ccc(C)cc1)CS2
// query Which numeric pEC50 is bigger, that of a or that of b ? # answer = label of selected item
// result a
(a: 6.55, b: 6.28)

###

Test system: human breast cancer cell line T-47D
PROTOCOL DESCRIPTION: Caspase cascade activation (EC50), T-47D
Assay type: cell-based
SETUP CONDITIONS: Homo sapiens; T47D cells; caspase cascade activation; read-out: caspase potency (EC50) T47D
pEC50: −log10 of the molar value.
Recorded measurements of pEC50, one per entry

[[record]]
structure_smiles_string = "Cc1ccccc1-c1nnc2n1N=C(c1ccc(C)c([N+](=O)[O-])c1)CS2"
value_observed = "< 5.00"


Entry `COc1ccccc1-c1nnc2n1N=C(c1ccc(C(=O)O)cc1)CS2` ; pEC50 = < 5.00

Recorded pEC50 (compound `COc1ccccc1-c1nnc2n1N=C(c1ccc(Cl)c(Cl)c1)CS2` ): < 5.00

###

System: human breast cancer cell line T-47D
PROTOCOL DESCRIPTION: Caspase cascade activation (EC50), T-47D
Assay type: cell-based
SETUP CONDITIONS: Homo sapiens; T47D cells; caspase cascade activation; read-out: caspase potency (EC50) T47D
pEC50: −log10 of the molar value.
PARAMETER MEASURED: pEC50

(a) COc1ccccc1-c1nnc2n1N=C(c1ccc(N3CCOCC3)cc1)CS2
(b) Fc1ccccc1-c1nnc2n1N=C(c1ccc3c(c1)OCO3)CS2
// query Kindly identify which of a and b has the larger recorded pEC50 value. Kindly state the label of the option you pick.
// result b

(P) COc1ccc(C2=Nn3c(nnc3-c3ccccc3OC)SC2)cc1
(Q) COc1cccc(-c2nnc3n2N=C(c2ccc4c(c2)OCO4)CS3)c1
// query Lab note: check whether P or Q has the lower measured pEC50. Respond with the label that goes with your answer.
// result Q
(Q: 6.30, P: 7.37)

###

System: human breast cancer cell line T-47D
PROTOCOL DESCRIPTION: Caspase cascade activation (EC50), T-47D
Assay type: cell-based
SETUP CONDITIONS: Homo sapiens; T47D cells; caspase cascade activation; read-out: caspase potency (EC50) T47D
Counter-ions that a name gives are not always drawn.
PARAMETER MEASURED: EC50 (nM)

[[record]]
molecule = "COc1ccc(C2=Nn3c(nnc3-c3ccc(OC)cc3OC)SC2)cc1 [Example 18, hydrochloride]"
system = "human breast cancer cell line T-47D"
parameter_measured = "EC50"
value_observed = 32

[[record]]
molecule = "COc1ccccc1-c1nnc2n1N=C(c1ccc3c(c1)OCCO3)CS2 [Example 43]"
system = "human breast cancer cell line T-47D"
parameter_measured = "EC50"
value_observed = 35

